Values from patent US20160002273A1

- test.system: SIRT2 (Homo sapiens)
- Sequence (Q8IXJ6 whole entry): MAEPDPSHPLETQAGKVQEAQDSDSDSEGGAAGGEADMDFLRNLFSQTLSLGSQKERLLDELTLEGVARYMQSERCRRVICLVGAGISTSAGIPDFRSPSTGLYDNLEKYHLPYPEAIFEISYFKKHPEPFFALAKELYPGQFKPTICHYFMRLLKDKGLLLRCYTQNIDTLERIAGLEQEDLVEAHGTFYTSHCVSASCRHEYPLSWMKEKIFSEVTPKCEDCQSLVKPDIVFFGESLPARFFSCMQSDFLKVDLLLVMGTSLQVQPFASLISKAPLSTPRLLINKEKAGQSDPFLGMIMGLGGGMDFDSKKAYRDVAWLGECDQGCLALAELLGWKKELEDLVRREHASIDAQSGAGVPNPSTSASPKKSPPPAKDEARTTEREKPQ
- assay.summary: SIRT2 deacetylation of Trp 5-mer peptide, OAADPr mass spec assay
- Type: biochemical
- Set-up: His-SIRT2(1-389)
- condition.parameters: Trp 5-mer peptide and NAD at KM; mean of at least three determinations; read-out: IC50 (μM) SIRT2
In plain terms, low IC50, meaning strictly below 0.3 µM, gives satisfied, and everything else gives not satisfied.

> print(dat)
                                smiles.text           test.system          class
1  NC(=O)c1cc2ncnc(N3CCC(CCN4CCCC4)CC3)c2s1  SIRT2 (Homo sapiens)      satisfied
2  CC(=S)NCCN1CCN(c2ncnc3cc(C(N)=O)sc23)CC1  SIRT2 (Homo sapiens)      satisfied
3  CC(=O)NCCC1CCN(c2ncnc3cc(C(N)=O)sc23)CC1  SIRT2 (Homo sapiens)      satisfied
4                  CCNc1ncnc2cc(C(N)=O)sc12  SIRT2 (Homo sapiens)  not satisfied
5  CC(C)(C)C(=O)NCCC1CCN(c2ccnc3cc(C(N)=O)sc23)CC1  SIRT2 (Homo sapiens)      satisfied
6  CC(C)(C)C(=O)NCC1CCN(c2ncnc3cc(C(N)=O)sc23)CC1  SIRT2 (Homo sapiens)  not satisfied
7  NC(=O)c1cc2ncnc(N3CCC(CCNC(=O)c4cccs4)CC3)c2s1  SIRT2 (Homo sapiens)      satisfied
